// values below are reported inhibition at 1 µM
Test system: TGF-β mediated by TSP-1
Assay: Cell-based assay of inhibition of TGF-β mediated by TSP-1
Parameters: species or system human
Settings: Homo sapiens; At 1 μM; read-out: Inhibition of TGF-β mediated by TSP-1 cell-based assay at [Inhibitor]
Description: To specifically assess activity of compounds in liver cell specific assays, two different assays were used. In the first, human hepatic stellate cells were incubated overnight in low serum media to condition the media with secreted latent TGF-3. […] Therefore, the ability of compounds to block TSP-1 activation of latent TGF-β will also be assessed in cultured primary human hepatocytes following the protocol described for the hepatic stellate cells. […]
I only need the number, in %, no unit after it.

Solved cases below.
INSERT INTO assay_data (compound, reported_value) VALUES
  ('NCCCC[C@@H]1NC(=O)C2(CCCC2)NC1=O [Compound 7]', 92),
  ('CC1(C)NC(=O)[C@H](Cc2cccc(CN)c2)NC1=O [Compound 6]', 97),
  ('NCCCC[C@@H]1NC(=O)CNC1=O [Compound 1, (S)-3-(4-aminobutyl)piperazine-2,5-dione]', 74.5),
  ('Nc1ccc(C[C@@H]2NC(=O)C3(CCCCC3)NC2=O)cc1 [Compound 15]', 94),
  ('Nc1ccc(C[C@@H]2NC(=O)C3(CCC3)NC2=O)cc1 [Compound 8]', 92);

Prompt line: What does the data say about its inhibition at 1 µM? Entry: CC1(C)NC(=O)[C@H](CCCCN)NC1=O [Compound 2]
Response line: 76

Prompt line: Also check NC(=O)c1ccc(C[C@@H]2NC(=O)C3(CCCC3)NC2=O)cc1 [Compound 13]
Response line: 19.6

Prompt line: Also check NC(=O)c1ccc(C[C@@H]2NC(=O)CNC2=O)cc1 [Compound 12]
Response line: 68

Prompt line: Also check CC1(C)NC(=O)[C@H](Cc2ccc(N)cc2)NC1=O [Compound 4]
Response line: 83

Prompt line: Also check NCCC[C@@H]1NC(=O)C2(CCCC2)NC1=O [Compound 14]
Response line: 90

Prompt line: Also check CC1(C)NC(=O)[C@H](Cc2ccc(C(N)=O)cc2)NC1=O [Compound 11]
Response line: 40

Prompt line: Also check Nc1ccc(C[C@@H]2NC(=O)CNC2=O)cc1 [Compound 3]
Response line: 75
